Target: feline FcRn complex (FcRn-α subunit and β-microglobulin), biotin labeled (feline)
Test: SPR, pH 7.4
pKd: −log10 of the molar value.

binder	pKd
feline IgG1a S252Y/S434H (antibody, part only; not given: Variable domains, not shown: another chain or arm of the molecule) constant: ASTTAPSVFPLAPSCGTTSGATVALACLVLGYFPEPVTVSWNSGALTSGVHTFPAVLQASGLYSLSSMVTVPSSRWLSDTFTCNVAHPPSNTKVDKTVRKTDHPPGPKPCDCPKCPPPEMLGGPSIFIFPPKPKDTLYISRTPEVTCLVVDLGPDDSDVQITWFVDNTQVYTAKTSPREEQFNSTYRVVSVLPILHQDWLKGKEFKCKVNSKSLPSPIERTISKAKGQPHEPQVYVLPPAQEELSRNKVSVTCLIKSFHPPDIAVEWEITGQPEPENNYRTTPPQLDSDGTYFVYSKLSVDRSHWQRGNTYTCSVSHEALHHHHTQKSLTQSPGK	7.93
